ASSAY SUMMARY: recombinant barcode read abundance after kanamycin selection (control-corrected) (log10(CPM+1)); higher = more efficient recombination; sequences stand for … in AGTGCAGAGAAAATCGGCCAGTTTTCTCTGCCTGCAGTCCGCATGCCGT…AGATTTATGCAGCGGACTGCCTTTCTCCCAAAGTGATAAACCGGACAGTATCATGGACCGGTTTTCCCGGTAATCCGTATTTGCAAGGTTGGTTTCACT; site = the 11-nt target
# binning rule on recombinant barcode read abundance (log10): bottom end = under 0.1, midrange = from 0.1 up to 0.2, top end = 0.2 and over

Reference set, count: 2
Task: For this sequence, which bin applies? AAGTCCACTTGGGTTCTAACCTGTTGCCT (site AAGTCCACTAG)
Result: top end

Task: Same thing, different sequence: TTCCGAGCTTGGGTTCTAACCTGTTGCAG (site CCTACGCCTTG)
Result: top end

More entries:
Task: For this sequence, which bin applies? ACCAGGTCTTGGGTTCTAACCTGTTGCCT (site ATCAGGTCTAG)
Result: bottom end

Task: Same thing, different sequence: TTAGAGCCTTGGGTTCTAACCTGTTGCCT (site TTAGAGACTAG)
Result: bottom end

Task: Same thing, different sequence: CAGCCCTCTTGGGTTCTAACCTGTTGCTA (site CCGCCCTCTAA)
Result: midrange

Task: Same thing, different sequence: AGGCGCCCTTGGGTTCTAACCTGTTGCAG (site AGGCGCCCTTT)
Result: midrange

Task: Same thing, different sequence: TGTCTCCCTTGGGTTCTAACCTGTTGCGT (site GAAGAGGCTTG)
Result: midrange

====

The following sequences are listed with their measured recombinant UMI read abundance (log10) values.
ASSAY SUMMARY: recombinant UMI read abundance after kanamycin selection (control-corrected) (log10(CPM+1)); higher = more efficient recombination; extreme values may be limits of the assay; sequences stand for … in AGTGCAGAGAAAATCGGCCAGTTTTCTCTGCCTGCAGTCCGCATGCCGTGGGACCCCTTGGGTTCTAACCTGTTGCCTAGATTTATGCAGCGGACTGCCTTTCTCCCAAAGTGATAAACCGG…AGGTTGGTTTCACT; site = the 11-nt donor
Please reply with the number alone, leaving off any unit.

Task: Look up recombinant UMI read abundance (log10): TGCTCGGCATGGACCGGTTTTCCCGGTAATCCGTATTTGGT (site TGCTTGGCTAC)
Result: 0.00594

Task: Same thing, different sequence: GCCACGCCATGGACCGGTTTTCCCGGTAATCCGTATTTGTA (site GCTACGCCTTA)
Result: 0.0265

Task: Same thing, different sequence: ACCTAGACATGGACCGGTTTTCCCGGTAATCCGTATTTGGA (site ACCTAGACTAC)
Result: 0

Task: Same thing, different sequence: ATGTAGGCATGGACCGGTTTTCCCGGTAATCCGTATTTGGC (site ATGTAGTCTGC)
Result: 1.06

More entries:
Task: Look up recombinant UMI read abundance (log10): TAGCGTTCATGGACCGGTTTTCCCGGTAATCCGTATTTGGT (site TAGCGTTCTAC)
Result: 1.12

Task: Same thing, different sequence: CCAGCAGCATGGACCGGTTTTCCCGGTAATCCGTATTTGCT (site CCAGCAGCTAG)
Result: 0.104
